# target-entity: NADPH oxidase 4 (Homo sapiens) (UniProt Q9NPH5)
# Sequence (Q9NPH5 whole entry, looked up): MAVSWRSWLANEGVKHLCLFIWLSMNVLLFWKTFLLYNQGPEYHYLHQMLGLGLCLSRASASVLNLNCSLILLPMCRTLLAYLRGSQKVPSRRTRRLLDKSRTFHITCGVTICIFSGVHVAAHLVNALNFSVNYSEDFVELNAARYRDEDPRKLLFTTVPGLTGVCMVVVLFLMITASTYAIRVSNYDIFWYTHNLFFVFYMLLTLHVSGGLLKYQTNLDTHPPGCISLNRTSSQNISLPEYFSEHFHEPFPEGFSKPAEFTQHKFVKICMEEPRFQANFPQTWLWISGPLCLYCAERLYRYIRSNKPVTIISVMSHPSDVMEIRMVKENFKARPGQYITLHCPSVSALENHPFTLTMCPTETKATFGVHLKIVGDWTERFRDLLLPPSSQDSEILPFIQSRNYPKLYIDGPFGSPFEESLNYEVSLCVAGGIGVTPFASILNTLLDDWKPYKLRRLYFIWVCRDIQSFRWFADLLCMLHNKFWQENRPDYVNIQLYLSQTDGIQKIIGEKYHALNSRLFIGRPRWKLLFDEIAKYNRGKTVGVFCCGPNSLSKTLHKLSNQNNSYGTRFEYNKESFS
# assay-comment: NOX4-dependent H2O2 signal modulators, primary screen, NOX inhibitor project, cell-based, HEK293-NOX4, tetracycline-induced, Amplex Red fluorescence (AID 1160)
# condition-set: 45 min, higher = more signal, called active from +8 up or from −8 down
Binary call on z-score: t from -0.7 upward, f beneath that.

Worked examples, 5 compounds total:
>  <compound>
CC(C)(C)OC(=O)CC[C@@]1(C(N)=O)N=C(c2ccc(OCCCO)cc2)O[C@@H]1c1ccccc1

>  <target-entity>
NADPH oxidase 4 (Homo sapiens) (UniProt Q9NPH5)

>  <classification>
t

$$$$
>  <compound>
CCCC=C(CCC)[C@@H](NC(=O)Oc1ccc(F)cc1)c1ccc(C(=O)OC)cc1

>  <target-entity>
NADPH oxidase 4 (Homo sapiens) (UniProt Q9NPH5)

>  <classification>
f

$$$$
>  <compound>
Cc1ccc(S[C@]2(C(=O)NC(C)C)CC(=O)N(Cc3ccccc3Cl)[C@@H]2c2ccc(CO)cc2I)cc1

>  <target-entity>
NADPH oxidase 4 (Homo sapiens) (UniProt Q9NPH5)

>  <classification>
f

$$$$
>  <compound>
CN1C(=O)C2C=CC(C(O)c3ccc(-c4ccccc4)s3)N(N(c3ccccc3)c3ccccc3)C2C1=O (stereo not drawn)

>  <target-entity>
NADPH oxidase 4 (Homo sapiens) (UniProt Q9NPH5)

>  <classification>
t

$$$$
>  <compound>
CN1C(=O)C2C=CC(C(O)c3cc(C(F)(F)F)cc(C(F)(F)F)c3)N(N3CCCCC3)C2C1=O (stereo not drawn)

>  <target-entity>
NADPH oxidase 4 (Homo sapiens) (UniProt Q9NPH5)

>  <classification>
t

$$$$

q: // inclusive: z-score at least -0.7? input: CCOC(=O)C[C@H]1[C@H](OC(=O)Cc2ccc3c(c2)OCO3)[C@@H](NC(=O)c2ccc(-c3ccccc3)cc2)c2cc(OCCCO)ccc2N1C(=O)Cc1ccc(OC)cc1
a: t

q: // inclusive: z-score at least -0.7? input: CC(C)(C)OC(=O)CC[C@@]1(C(=O)NCCN2CCOCC2)N=C(c2ccc(OCCCO)cc2)O[C@@H]1c1ccccc1N=[N+]=[N-]
a: t

q: // inclusive: z-score at least -0.7? input: COCCCNC(=O)C1N=C(c2ccc(OCCCO)cc2)N(c2ccccc2)O1 (stereo not drawn)
a: f
